Data credit: ChEMBL document CHEMBL3745614

Molecular target: Fatty-acid amide hydrolase 1 (Homo sapiens) (UniProt O00519)
Sequence (whole entry): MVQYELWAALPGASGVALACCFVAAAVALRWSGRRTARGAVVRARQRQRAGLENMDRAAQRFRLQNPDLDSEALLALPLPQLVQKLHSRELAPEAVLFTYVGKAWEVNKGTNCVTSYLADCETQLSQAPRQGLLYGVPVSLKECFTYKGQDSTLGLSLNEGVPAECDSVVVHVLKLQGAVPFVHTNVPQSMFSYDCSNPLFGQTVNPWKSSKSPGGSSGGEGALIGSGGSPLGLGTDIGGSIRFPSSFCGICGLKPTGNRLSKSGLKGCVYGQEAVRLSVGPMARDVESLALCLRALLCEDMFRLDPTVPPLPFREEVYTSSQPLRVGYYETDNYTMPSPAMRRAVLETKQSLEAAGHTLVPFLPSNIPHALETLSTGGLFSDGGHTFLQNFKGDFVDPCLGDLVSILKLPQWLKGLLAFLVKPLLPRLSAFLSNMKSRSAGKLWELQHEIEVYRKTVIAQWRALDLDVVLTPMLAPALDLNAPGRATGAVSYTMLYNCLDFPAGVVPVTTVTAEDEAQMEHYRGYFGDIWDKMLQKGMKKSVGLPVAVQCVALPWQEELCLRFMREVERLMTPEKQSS
Assay: Inhibition of human FAAH expressed in African green monkey COS-7 cell membranes using [3H]-AEA as substrate assessed as residual activity at 10 uM preincubated for 10 mins followed by substrate addition measured after 10 mins by liquid scintillation counting analysis relative to control
# Met = Activity below 90% (exclusive); Not met = Activity at/above 90%

INSERT INTO results (compound_smiles, subject_of_test, discrete_label) VALUES
  ('O=C(NCc1ccccc1)c1ccc(NC(=S)NC(=O)c2ccc(-c3ccccc3)cc2)cc1', 'Fatty-acid amide hydrolase 1 (Homo sapiens) (UniProt O00519)', 'Met'),
  ('CC(C)CNS(=O)(=O)c1ccc(NC(=S)NC(=O)c2ccc(-c3ccccc3)cc2)cc1', 'Fatty-acid amide hydrolase 1 (Homo sapiens) (UniProt O00519)', 'Not met'),
  ('O=C(NC(=S)Nc1ccc(S(=O)(=O)NCCc2ccccc2)cc1)c1ccc(-c2ccccc2)cc1', 'Fatty-acid amide hydrolase 1 (Homo sapiens) (UniProt O00519)', 'Not met'),
  ('Cc1ccc(C(=O)NC(=S)Nc2ccc(S(=O)(=O)NC(C)C)cc2)c(Br)c1', 'Fatty-acid amide hydrolase 1 (Homo sapiens) (UniProt O00519)', 'Not met'),
  ('CN(C)S(=O)(=O)c1ccc(NC(=S)NC(=O)c2ccc(-c3ccccc3)cc2)cc1', 'Fatty-acid amide hydrolase 1 (Homo sapiens) (UniProt O00519)', 'Met'),
  ('Cc1ccc(CNS(=O)(=O)c2ccc(NC(=S)NC(=O)c3ccc(-c4ccccc4)cc3)cc2)cc1', 'Fatty-acid amide hydrolase 1 (Homo sapiens) (UniProt O00519)', 'Not met'),
  ('COc1ccc(C(=O)NC(=S)Nc2ccc(S(=O)(=O)NC(C)C)cc2)cc1', 'Fatty-acid amide hydrolase 1 (Homo sapiens) (UniProt O00519)', 'Not met');

====

target: Cannabinoid receptor 1 (Homo sapiens); experiment: Antagonist activity at human CBR1 assessed as [35S]GTPgammaS binding at 10 uM by radiometric assay relative to control; parameters: scale not given: the % may be the effect or the level left
# 1 = Activity below 90% (exclusive); 0 = Activity at/above 90%

INSERT INTO results (compound_smiles, discrete_label) VALUES
  ('CC(C)CNS(=O)(=O)c1ccc(NC(=S)NC(=O)c2ccc(-c3ccccc3)cc2)cc1', 0),
  ('Cc1ccc(C(=O)NC(=S)Nc2ccc(S(=O)(=O)NC(C)(C)C)cc2)cc1', 0),
  ('CC(=O)NS(=O)(=O)c1ccc(NC(=S)NC(=O)c2cccc3ccccc23)cc1', 0),
  ('Cc1ccc(CNS(=O)(=O)c2ccc(NC(=S)NC(=O)c3ccc(-c4ccccc4)cc3)cc2)cc1', 0),
  ('O=C(NC(=S)Nc1ccc(S(=O)(=O)Nc2ccc(Cl)cc2)cc1)c1ccc(-c2ccccc2)cc1', 1),
  ('C=CCN(CC=C)S(=O)(=O)c1ccc(NC(=S)NC(=O)c2ccc(-c3ccccc3)cc2)cc1', 1);

====

target: UniProt:P21554; assay: Agonist activity at CBR1 (unknown origin) assessed as [35S]GTPgammaS binding at 10 uM by […] assay relative to control; type: functional
Sequence (P21554 whole entry): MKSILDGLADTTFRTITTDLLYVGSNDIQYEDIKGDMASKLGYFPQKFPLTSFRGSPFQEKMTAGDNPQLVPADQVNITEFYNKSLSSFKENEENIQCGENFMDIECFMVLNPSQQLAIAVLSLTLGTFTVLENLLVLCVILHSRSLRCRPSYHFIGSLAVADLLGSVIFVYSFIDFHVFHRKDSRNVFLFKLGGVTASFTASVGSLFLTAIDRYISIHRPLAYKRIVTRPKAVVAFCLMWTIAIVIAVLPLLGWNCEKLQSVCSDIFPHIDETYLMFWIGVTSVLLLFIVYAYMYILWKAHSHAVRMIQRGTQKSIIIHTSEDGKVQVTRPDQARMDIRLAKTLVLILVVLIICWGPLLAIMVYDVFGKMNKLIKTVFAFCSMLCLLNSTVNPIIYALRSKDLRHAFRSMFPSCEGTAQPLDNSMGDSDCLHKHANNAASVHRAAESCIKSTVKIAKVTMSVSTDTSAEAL
Each item that follows carries a reported Activity.
metric-name: Activity (%)

INSERT INTO measurements (compound_smiles, metric_name, unit_name, measured_number) VALUES
  ('C=CCNS(=O)(=O)c1ccc(NC(=S)NC(=O)c2ccc(-c3ccccc3)cc2)cc1', 'Activity', '%', 127),
  ('CC(=O)NS(=O)(=O)c1ccc(NC(=S)NC(=O)c2ccc(C(C)C)cc2)cc1', 'Activity', '%', 100),
  ('C=CCN(CC=C)S(=O)(=O)c1ccc(NC(=S)NC(=O)c2ccc([N+](=O)[O-])cc2)cc1', 'Activity', '%', 99),
  ('O=C(NC(=S)Nc1ccc(S(=O)(=O)NCc2ccc(F)cc2)cc1)c1ccc(-c2ccccc2)cc1', 'Activity', '%', 99),
  ('CN(C)S(=O)(=O)c1ccc(NC(=S)NC(=O)c2ccc(-c3ccccc3)cc2)cc1', 'Activity', '%', 105),
  ('O=C(NC(=S)Nc1ccc(S(=O)(=O)NCc2ccccc2)cc1)c1ccc(-c2ccccc2)cc1', 'Activity', '%', 97),
  ('COc1ccc(C(=O)NC(=S)Nc2ccc(S(=O)(=O)NC(C)C)cc2)cc1', 'Activity', '%', 93),
  ('CC(=O)NS(=O)(=O)c1ccc(NC(=S)NC(=O)c2cccc3ccccc23)cc1', 'Activity', '%', 96),
  ('Cc1ccc(C(=O)NC(=S)Nc2ccc(S(=O)(=O)NC(C)C)cc2)c(Br)c1', 'Activity', '%', 103),
  ('O=C(NC(=S)Nc1ccc(S(=O)(=O)NCc2ccco2)cc1)c1ccc(-c2ccccc2)cc1', 'Activity', '%', 100),
  ('O=C(NCCc1ccccc1)c1ccc(NC(=S)NC(=O)c2ccc(-c3ccccc3)cc2)cc1', 'Activity', '%', 98),
  ('CC(C)CNS(=O)(=O)c1ccc(NC(=S)NC(=O)c2ccc(-c3ccccc3)cc2)cc1', 'Activity', '%', 119),
  ('O=C(NC(=S)Nc1ccc(S(=O)(=O)NCc2ccc(I)cc2)cc1)c1ccc(-c2ccccc2)cc1', 'Activity', '%', 100),
  ('CN1CCN(S(=O)(=O)c2ccc(NC(=S)NC(=O)c3ccc(-c4ccccc4)cc3)cc2)CC1', 'Activity', '%', 101),
  ('C=CCN(CC=C)S(=O)(=O)c1ccc(NC(=S)NC(=O)c2ccc(-c3ccccc3)cc2)cc1', 'Activity', '%', 95),
  ('O=C(NCc1ccccc1)c1ccc(NC(=S)NC(=O)c2ccc(-c3ccccc3)cc2)cc1', 'Activity', '%', 116),
  ('CCCNS(=O)(=O)c1ccc(NC(=S)NC(=O)c2ccc(-c3ccccc3)cc2)cc1', 'Activity', '%', 128),
  ('NS(=O)(=O)c1ccc(NC(=S)NC(=O)c2ccc(-c3ccccc3)cc2)cc1', 'Activity', '%', 147),
  ('O=C(NC(=S)Nc1ccc(S(=O)(=O)Nc2ccc(Cl)cc2)cc1)c1ccc(-c2ccccc2)cc1', 'Activity', '%', 93),
  ('O=C(NC(=S)Nc1ccc(S(=O)(=O)NCCc2c[nH]c3ccccc23)cc1)c1ccc(-c2ccccc2)cc1', 'Activity', '%', 103),
  ('O=C(NC(=S)Nc1ccc(S(=O)(=O)Nc2ccccc2)cc1)c1ccc(-c2ccccc2)cc1', 'Activity', '%', 100),
  ('CC(C)NS(=O)(=O)c1ccc(NC(=S)NC(=O)c2ccc(-c3ccccc3)cc2)cc1', 'Activity', '%', 110),
  ('Cc1ccc(CNS(=O)(=O)c2ccc(NC(=S)NC(=O)c3ccc(-c4ccccc4)cc3)cc2)cc1', 'Activity', '%', 105),
  ('COc1ccc(CNS(=O)(=O)c2ccc(NC(=S)NC(=O)c3ccc(-c4ccccc4)cc3)cc2)cc1', 'Activity', '%', 101),
  ('Cc1ccc(C(=O)NC(=S)Nc2ccc(S(=O)(=O)NC(C)(C)C)cc2)cc1', 'Activity', '%', 105),
  ('O=C(NC(=S)Nc1ccc(S(=O)(=O)NCCc2ccccc2)cc1)c1ccc(-c2ccccc2)cc1', 'Activity', '%', 103),
  ('CCCCc1ccc(NS(=O)(=O)c2ccc(NC(=S)NC(=O)c3ccc(-c4ccccc4)cc3)cc2)cc1', 'Activity', '%', 96);

====

target: Monoacylglycerol lipase ABHD6 (Homo sapiens); experiment: Inhibition of human ABHD6 expressed in […] cells using 2-AG as substrate assessed as glycerol liberation at 1 uM preincubated for 30 mins followed by 2-AG addition measured for 90 mins by fluorescent glycerol assay relative to control; type: cell-based; design: scale not given: the % may be the effect or the level left
metric-name: Activity (%)

INSERT INTO results (compound_smiles, unit_name, measured_number) VALUES
  ('Cc1ccc(CNS(=O)(=O)c2ccc(NC(=S)NC(=O)c3ccc(-c4ccccc4)cc3)cc2)cc1', '%', 100),
  ('O=C(NCc1ccccc1)c1ccc(NC(=S)NC(=O)c2ccc(-c3ccccc3)cc2)cc1', '%', 96),
  ('Cc1ccc(C(=O)NC(=S)Nc2ccc(S(=O)(=O)NC(C)C)cc2)c(Br)c1', '%', 106),
  ('O=C(NC(=S)Nc1ccc(S(=O)(=O)NCc2ccc(I)cc2)cc1)c1ccc(-c2ccccc2)cc1', '%', 103),
  ('C=CCN(CC=C)S(=O)(=O)c1ccc(NC(=S)NC(=O)c2ccc([N+](=O)[O-])cc2)cc1', '%', 102),
  ('O=C(NC(=S)Nc1ccc(S(=O)(=O)NCc2ccco2)cc1)c1ccc(-c2ccccc2)cc1', '%', 91),
  ('CC(C)CNS(=O)(=O)c1ccc(NC(=S)NC(=O)c2ccc(-c3ccccc3)cc2)cc1', '%', 106),
  ('O=C(NC(=S)Nc1ccc(S(=O)(=O)NCc2ccc(F)cc2)cc1)c1ccc(-c2ccccc2)cc1', '%', 95),
  ('O=C(NCCc1ccccc1)c1ccc(NC(=S)NC(=O)c2ccc(-c3ccccc3)cc2)cc1', '%', 96),
  ('CC(C)NS(=O)(=O)c1ccc(NC(=S)NC(=O)c2ccc(-c3ccccc3)cc2)cc1', '%', 95),
  ('O=C(NC(=S)Nc1ccc(S(=O)(=O)NCCc2ccccc2)cc1)c1ccc(-c2ccccc2)cc1', '%', 99),
  ('Cc1ccc(C(=O)NC(=S)Nc2ccc(S(=O)(=O)NC(C)(C)C)cc2)cc1', '%', 96),
  ('COc1ccc(C(=O)NC(=S)Nc2ccc(S(=O)(=O)NC(C)C)cc2)cc1', '%', 102),
  ('CCCNS(=O)(=O)c1ccc(NC(=S)NC(=O)c2ccc(-c3ccccc3)cc2)cc1', '%', 103),
  ('O=C(NC(=S)Nc1ccc(S(=O)(=O)NCCc2c[nH]c3ccccc23)cc1)c1ccc(-c2ccccc2)cc1', '%', 99),
  ('COc1ccc(CNS(=O)(=O)c2ccc(NC(=S)NC(=O)c3ccc(-c4ccccc4)cc3)cc2)cc1', '%', 101),
  ('C=CCNS(=O)(=O)c1ccc(NC(=S)NC(=O)c2ccc(-c3ccccc3)cc2)cc1', '%', 99);
